# System: EGFR (human), P00533 [T790M]
# Method Notes: KINOMEscan competition binding
# Stated Conditions: compound 10.0 µM
Assay Metric: kinase still bound, per cent of control (%)
Give the number; % is assumed, so skip it.

Solved entries:
>  <Compound>
CC1=C(C(=O)Nc2cc3cn[nH]c3cc2F)C(c2ccc(C(F)(F)F)cc2)CC(=O)N1 (stereo not drawn)

>  <kinase still bound, per cent of control / %>
40

$$$$
>  <Compound>
CC(=O)c1c(C)c2cnc(Nc3ccc(N4CCNCC4)cn3)nc2n(C2CCCC2)c1=O

>  <kinase still bound, per cent of control / %>
39

$$$$

Okay, now this compound:
Query Cc1ccc(NC(=O)c2cccc(C(C)(C)C#N)c2)cc1Nc1ccc2ncn(C)c(=O)c2c1 on EGFR (human), P00533 [T790M]; kinase still bound, per cent of control returned: 79

* * *

# Tested on: ABL1 (human), P00519 [Y253F]
# Method Notes: KINOMEscan competition binding
# Stated Conditions: compound 10.0 µM
Known kinase still bound, per cent of control of a selection of compounds
Give the number; % is assumed, so skip it.

Solved entries:
>  <Smi>
C=CC(=O)Nc1ccc(CN(C(=O)Nc2c(Cl)c(OC)cc(OC)c2Cl)c2cc(Nc3ccc(N4CCN(C)CC4)cc3)ncn2)cc1

>  <kinase still bound, per cent of control [%]>
13

$$$$
>  <Smi>
CCN1CCN(Cc2ccc(NC(=O)c3ccc(C)c(/C=C/c4cnc5[nH]ccc5c4OC)c3)cc2C(F)(F)F)CC1

>  <kinase still bound, per cent of control [%]>
0.25

$$$$
>  <Smi>
O=C1NC(=O)/C(=C/c2ccc3nccc(-c4ccncc4)c3c2)S1

>  <kinase still bound, per cent of control [%]>
68

$$$$
>  <Smi>
COc1cc(N2CCN(C)CC2)ccc1Nc1nc(N)c(C(=O)c2c(Cl)cccc2Cl)s1

>  <kinase still bound, per cent of control [%]>
98

$$$$
>  <Smi>
Cc1ccc(NC(=O)c2cccc(C(C)(C)C#N)c2)cc1Nc1ccc2ncn(C)c(=O)c2c1

>  <kinase still bound, per cent of control [%]>
1.4

$$$$
>  <Smi>
N#Cc1cc(-c2ccnc(Nc3ccc(-n4cnc(-c5cccnc5)n4)cc3)n2)cc(N2CCOCC2)c1

>  <kinase still bound, per cent of control [%]>
84

$$$$
>  <Smi>
COc1cc(N2CCC(C(N)=O)CC2)ccc1Nc1nc(N)c(Cl)c(Nc2ccccc2S(=O)(=O)C(C)C)n1

>  <kinase still bound, per cent of control [%]>
100

$$$$
>  <Smi>
CN(C)C/C=C/C(=O)Nc1cccc(Nc2ncc3c(n2)N(C)c2ccccc2C(=O)N3C)c1

>  <kinase still bound, per cent of control [%]>
0

$$$$
>  <Smi>
CNC(=O)c1ccc(Nc2cc(Nc3ccccc3S(=O)(=O)C(C)C)c3cc[nH]c3n2)nc1

>  <kinase still bound, per cent of control [%]>
12

$$$$
>  <Smi>
NC(=O)Nc1cc(-c2cccc(F)c2)sc1C(=O)N[C@@H]1CCCNC1

>  <kinase still bound, per cent of control [%]>
0

$$$$

Okay, now this compound:
Record CCN(CCO)CCCOc1ccc2c(Nc3cc(CC(=O)Nc4cccc(F)c4)[nH]n3)ncnc2c1 , field kinase still bound, per cent of control: 28

* * *

# System Under Test: RPS6KA1 KD1 (human) (UniProt Q15418)
# Sequence (Q15418 whole entry, looked up): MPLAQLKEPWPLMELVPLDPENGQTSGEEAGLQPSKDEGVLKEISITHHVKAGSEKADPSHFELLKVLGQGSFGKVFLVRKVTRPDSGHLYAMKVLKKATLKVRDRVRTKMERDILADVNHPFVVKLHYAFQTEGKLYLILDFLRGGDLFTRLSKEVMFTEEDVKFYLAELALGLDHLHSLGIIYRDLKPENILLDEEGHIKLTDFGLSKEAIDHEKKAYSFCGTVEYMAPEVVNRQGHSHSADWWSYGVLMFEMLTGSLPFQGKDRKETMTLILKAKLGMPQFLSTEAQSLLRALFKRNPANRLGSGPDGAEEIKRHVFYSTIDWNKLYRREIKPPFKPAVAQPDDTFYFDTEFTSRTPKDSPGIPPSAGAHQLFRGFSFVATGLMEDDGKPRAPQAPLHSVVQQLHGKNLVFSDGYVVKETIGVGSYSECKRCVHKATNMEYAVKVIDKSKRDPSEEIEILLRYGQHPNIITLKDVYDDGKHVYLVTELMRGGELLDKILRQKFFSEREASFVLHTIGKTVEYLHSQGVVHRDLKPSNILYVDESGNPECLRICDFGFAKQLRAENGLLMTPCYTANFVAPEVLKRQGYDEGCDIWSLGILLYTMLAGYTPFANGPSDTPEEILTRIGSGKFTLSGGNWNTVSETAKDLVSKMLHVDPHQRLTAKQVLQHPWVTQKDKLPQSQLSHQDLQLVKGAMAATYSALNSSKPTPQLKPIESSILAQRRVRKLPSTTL
# Method Notes: KINOMEscan competition binding
# Stated Conditions: compound 10.0 µM
Assay Metric: kinase still bound, per cent of control (%)
Give the number; % is assumed, so skip it.

>  <Smi>
CNC(=O)c1ccc(Nc2cc(Nc3ccccc3S(=O)(=O)C(C)C)c3cc[nH]c3n2)nc1

>  <kinase still bound, per cent of control [%]>
0.8

$$$$
>  <Smi>
COCC(=O)NC/C=C/c1ccc2ncnc(Nc3ccc(Oc4ccc(C)nc4)c(C)c3)c2c1

>  <kinase still bound, per cent of control [%]>
100

$$$$

Record O=C(Nc1cccc(Nc2ncc(Br)c(NCCc3cnc[nH]3)n2)c1)N1CCCC1 , field kinase still bound, per cent of control: 4.3

Record CCN(CC)CCCCNc1ncc2c(n1)N(C)C(=O)N(c1c(Cl)c(OC)cc(OC)c1Cl)C2 , field kinase still bound, per cent of control: 100

Record Cc1n[nH]c2ccc(-c3cncc(OC[C@@H](N)Cc4c[nH]c5ccccc45)c3)cc12 , field kinase still bound, per cent of control: 100

Record COc1ccc(N(C(=O)Oc2c(C)cccc2C)c2ccnc(Nc3ccc(N4CCN(C)CC4)cc3)n2)c(OC)c1 , field kinase still bound, per cent of control: 58

Record CNC(=O)c1cc(Oc2ccc(NC(=O)Nc3ccc(Cl)c(C(F)(F)F)c3)cc2)ccn1 , field kinase still bound, per cent of control: 82

Record O=C1NC(=O)/C(=C/c2ccc3nccc(-c4ccncc4)c3c2)S1 , field kinase still bound, per cent of control: 51

Record COc1cc(C(=O)N2CCC(N3CCN(C)CC3)CC2)ccc1Nc1ncc2c(n1)N(C)c1ccccc1C(=O)N2C , field kinase still bound, per cent of control: 73

Record COc1cc(N2CCN(C)CC2)ccc1Nc1ncc2c(n1)N(C)c1ccccc1C(=O)N2C , field kinase still bound, per cent of control: 100

Record CN(C)C/C=C/C(=O)Nc1ccc(C(=O)Nc2cccc(Nc3nccc(-c4cccnc4)n3)c2)cc1 , field kinase still bound, per cent of control: 91

Record CS(=O)(=O)N1CCN(Cc2cc3nc(-c4cccc5[nH]ncc45)nc(N4CCOCC4)c3s2)CC1 , field kinase still bound, per cent of control: 100

* * *

Known kinase still bound, per cent of control of a selection of compounds
# System Under Test: CDKL1 (human) (UniProt Q00532)
# Sequence (Q00532 whole entry, looked up): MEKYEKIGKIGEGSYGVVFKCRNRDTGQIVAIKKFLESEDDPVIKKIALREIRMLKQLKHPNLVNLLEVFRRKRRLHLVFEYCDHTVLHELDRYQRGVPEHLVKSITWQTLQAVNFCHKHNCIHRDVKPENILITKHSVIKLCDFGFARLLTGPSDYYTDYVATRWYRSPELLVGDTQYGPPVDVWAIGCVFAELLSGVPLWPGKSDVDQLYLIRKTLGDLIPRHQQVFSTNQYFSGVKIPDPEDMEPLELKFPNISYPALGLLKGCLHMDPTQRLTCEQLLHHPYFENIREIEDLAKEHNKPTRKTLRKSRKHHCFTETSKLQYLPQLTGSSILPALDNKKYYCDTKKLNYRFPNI
# Method Notes: KINOMEscan competition binding
# Stated Conditions: compound 10.0 µM
Give the number; % is assumed, so skip it.

>  <Smi>
COCC(=O)NC/C=C/c1ccc2ncnc(Nc3ccc(Oc4ccc(C)nc4)c(C)c3)c2c1

>  <Readout Units>
%

>  <kinase still bound, per cent of control>
69

$$$$
>  <Smi>
CCN1CCN(C(=O)Cc2ccc(Nc3ncc(F)c(Nc4ccc(C(=O)Nc5ccccc5Cl)cc4)n3)cc2)CC1

>  <Readout Units>
%

>  <kinase still bound, per cent of control>
41

$$$$
>  <Smi>
CN(C)C/C=C/C(=O)Nc1ccc(C(=O)Nc2cccc(Nc3nccc(-c4cccnc4)n3)c2)cc1

>  <Readout Units>
%

>  <kinase still bound, per cent of control>
41

$$$$

Okay, now this compound:
Record CNC(=O)c1cc(Oc2ccc(NC(=O)Nc3ccc(Cl)c(C(F)(F)F)c3)cc2)ccn1 , field kinase still bound, per cent of control: 70

* * *

# System Under Test: ALK (human)
# Method Notes: KINOMEscan competition binding
# Stated Conditions: compound 10.0 µM
Assay Metric: kinase still bound, per cent of control (%)
Give the number; % is assumed, so skip it.

>  <Smi>
O=c1cc(N2CCOCC2)oc2c(-c3cccc4c3sc3ccccc34)cccc12

>  <System Under Test>
ALK (human)

>  <kinase still bound, per cent of control [%]>
100

$$$$
>  <Smi>
COCC(=O)NC/C=C/c1ccc2ncnc(Nc3ccc(Oc4ccc(C)nc4)c(C)c3)c2c1

>  <System Under Test>
ALK (human)

>  <kinase still bound, per cent of control [%]>
100

$$$$
>  <Smi>
C=CC(=O)Nc1cc(-n2c(=O)ccc3cnc4ccc(-c5cn[nH]c5)cc4c32)ccc1C

>  <System Under Test>
ALK (human)

>  <kinase still bound, per cent of control [%]>
100

$$$$
>  <Smi>
CCN(CC)CCCCNc1ncc2c(n1)N(C)C(=O)N(c1c(Cl)c(OC)cc(OC)c1Cl)C2

>  <System Under Test>
ALK (human)

>  <kinase still bound, per cent of control [%]>
100

$$$$
>  <Smi>
COc1cc(C(=O)N2CCC(N3CCN(C)CC3)CC2)ccc1Nc1ncc2c(n1)N(C)c1ccccc1C(=O)N2C

>  <System Under Test>
ALK (human)

>  <kinase still bound, per cent of control [%]>
13

$$$$
>  <Smi>
CS(=O)(=O)N1CCN(Cc2cc3nc(-c4cccc5[nH]ncc45)nc(N4CCOCC4)c3s2)CC1

>  <System Under Test>
ALK (human)

>  <kinase still bound, per cent of control [%]>
100

$$$$

Query CNC(=O)c1ccc(Nc2cc(Nc3ccccc3S(=O)(=O)C(C)C)c3cc[nH]c3n2)nc1 on ALK (human); kinase still bound, per cent of control returned: 1.8

Query O=C1NC(=O)/C(=C/c2ccc3nccc(-c4ccncc4)c3c2)S1 on ALK (human); kinase still bound, per cent of control returned: 25

* * *

# System Under Test: FGFR1 (human)
# Method Notes: KINOMEscan competition binding
# Stated Conditions: compound 10.0 µM
Assay Metric: kinase still bound, per cent of control (%)
Give the number; % is assumed, so skip it.

Solved entries:
>  <Smi>
Cc1n[nH]c2ccc(-c3cncc(OC[C@@H](N)Cc4c[nH]c5ccccc45)c3)cc12

>  <Val>
100

$$$$
>  <Smi>
O=c1cc(N2CCOCC2)oc2c(-c3cccc4c3sc3ccccc34)cccc12

>  <Val>
93

$$$$
>  <Smi>
COc1cc2ncn(-c3cc(OCc4ccccc4C(F)(F)F)c(C(N)=O)s3)c2cc1OC

>  <Val>
43

$$$$

Query COc1cc(C(=O)N2CCC(N3CCN(C)CC3)CC2)ccc1Nc1ncc2c(n1)N(C)c1ccccc1C(=O)N2C on FGFR1 (human); kinase still bound, per cent of control returned: 86

Query C=CC(=O)Nc1cc(-n2c(=O)ccc3cnc4ccc(-c5cn[nH]c5)cc4c32)ccc1C on FGFR1 (human); kinase still bound, per cent of control returned: 80
